System: SW-620
Test: NCI tumour cell line growth inhibition, 48 h
Calls of active or inactive are those of the source. No stated cut-off is given here; in the data, active = GI50 up to about 1.1 µM and inactive = higher.
Item-by-item account of GI50

| compound | GI50 |
| --- | --- |
| O=C1OC(C(O)CO)C(C(O)CO)OC1=O (centres undefined) | > 10 µM (inactive) |
| COc1cc2c(cc1C)NC(=O)/C2=C/c1c(Cl)n(C)c2ccccc12 | 3.05 µM (inactive) |
| CCOC(=O)C(NC(=O)c1cccc(Cl)c1)(Nc1cccc(C)c1)C(F)(F)F (centres undefined) | 16.4 µM (inactive) |
| Oc1cc(Cc2ccccc2)c(Cc2ccccc2)cc1O | > 10 µM (inactive) |
| Cc1ccc(S[C@@](C=O)(NC(=O)OCc2ccccc2)C(F)(F)F)cc1 | 21.8 µM (inactive) |

// GI50 lookup, compound = Cc1c(-c2coc(-c3ccccc3)n2)c(=O)n(-c2ccccc2)n1C , result: 37.8 µM (inactive)

// GI50 lookup, compound = COC(=O)c1c(C(=O)OC)c2ccccn2c1-c1cc(C)cc2c1C(=O)C=CC2=O , result: 2.89 µM (inactive)

// GI50 lookup, compound = COC(=O)CCC(C)[C@H]1CCC2C3C(C[C@H](OC(C)=O)[C@@]21C)[C@@]1(C)CCC2(C[C@H]1C[C@H]3OC(C)=O)OOC1(CCC(C(C)(C)C)CC1)OO2 (some centres undefined) , result: 12.3 µM (inactive)

// GI50 lookup, compound = COc1cc2c(cc1OC)C1(c3ccc(Cl)cc3)ON=C(c3ccccc3)N1CS2 (centres undefined) , result: > 100 µM (inactive)

----------
Item-by-item account of GI50
Test system: NCI-H460
Test: NCI tumour cell line growth inhibition, 48 h
Active and inactive are the calls of the source. No stated cut-off is given here; in the data, active = GI50 up to about 1.1 µM and inactive = higher.

Below, each entry is followed by its recorded GI50 result.
| compound | GI50 |
| --- | --- |
| O=C(NC1CCCCCC1)C1C(=O)N(C2CCCCCC2)C(=O)/C1=N\O (configuration not stated) | 35.7 µM (inactive) |
| COC(=O)c1c2c(cc3c1CC1(Cc4ccc(C(C)=O)cc4C1)C3)CCC2 (configuration not stated) | 42.2 µM (inactive) |
| NC(=O)C(=O)N/N=C1/c2ccccc2CC1C1(O)C(=O)Nc2c(Cl)cc(Cl)cc21 (configuration not stated) | > 100 µM (inactive) |
| CN(C)CCN(C)P12(Oc3ccccc3O1)Oc1c(Cl)c(Cl)c(Cl)c(Cl)c1O2 | 37.2 µM (inactive) |
| CO/N=C(\C)c1cccc(Nc2c3ccccc3nc3occc23)c1 | 5.81 µM (inactive) |
| CC(C)(C)C1=C(Br)C(F)(C(C)(C)C)OP1(=O)c1ccccc1 (configuration not stated) | 19.1 µM (inactive) |
| O=C1NNC2(C(=O)N1)c1ccccc1-c1ccccc12 | > 10 µM (inactive) |
| CCN(CC)CCn1c(C(C)(C)C)nc2ccccc21 | > 100 µM (inactive) |
| COc1ccc2nc3c(c(N)c2c1)C1CCC3C1(C)C (configuration not stated) | 31.2 µM (inactive) |
| COC(=O)c1csc(-c2nc(CCNC(=O)OC(C)(C)C)sc2Br)n1 | > 100 µM (inactive) |

// GI50 lookup, compound = C[Si](C)(C)/C=C/CN1C(=O)CCC1O (configuration not stated) , result: > 100 µM (inactive)

----------
System: DMS-273
Assay: NCI tumour cell line growth inhibition, 48 h
The source made the active and inactive calls. Cut-off read from the data, not from the text of the source: active = GI50 up to about 1.1 µM and inactive = higher.
Outcomes you can answer with include only these: 1.0 for active, 0.0 for inactive

| compound | system tested | class assignment |
| --- | --- | --- |
| C=CCNC(=S)OCCCCCCCCCC | DMS-273 | 0.0 |
| CC(C)(C)C1CCC2c3c([nH]c4ccccc34)C3C(=O)N(c4ccccc4)C(=O)C3C2C1 (centres undefined) | DMS-273 | 0.0 |
| Nc1ccc2nc(Nc3ccc(Cl)c(Cl)c3)cnc2c1 | DMS-273 | 0.0 |
| N/C(=N\O)N/N=C/c1cccs1 | DMS-273 | 0.0 |
| CCC1(O)CC(c2ccccc2)N(C)C(c2ccccc2)C1 (centres undefined) | DMS-273 | 0.0 |

Exercise: Hi, do you know how COc1cc(Cn2c3ccccc3c3cc(C)c4c(c32)C=CC(C)(CCC=C(C)C)O4)cc2c1[nH]c1ccccc12 (centres undefined) came out in this test?
Key: 0.0

Exercise: Hi, do you know how CC(C)=CCc1c(O)ccc2ccc(=O)oc12 came out in this test?
Key: 0.0

Exercise: Hi, do you know how CN1CCOC(C(NC(=O)c2ccccc2)c2ccccc2)C1=O (centres undefined) came out in this test?
Key: 0.0

Exercise: Hi, do you know how Cc1n(CC(C)C)c2c([n+]1C)C(=O)c1ccccc1C2=O came out in this test?
Key: 1.0

Exercise: Hi, do you know how OC[C@H]1O[C@@H](n2cnc3c(S)ncnc32)[C@H](O)[C@@H]1O came out in this test?
Key: 0.0

Exercise: Hi, do you know how O=C(c1cc2ccccc2o1)N(Cc1ccccc1)c1ccccc1 came out in this test?
Key: 0.0

Exercise: Hi, do you know how Cc1nnc(N/N=C2\C(=O)Nc3ccccc32)n1N came out in this test?
Key: 0.0

Exercise: Hi, do you know how C[C@@]1(CBr)C[C@@](C)(/C=C/Cl)[C@@H](Cl)C[C@H]1Cl came out in this test?
Key: 0.0

Exercise: Hi, do you know how CCn1c2c(c3ccccc31)C(c1ccccc1)CC1C(=O)N(c3ccccc3)C(=O)C21 (centres undefined) came out in this test?
Key: 0.0

----------
System: DMS-114
Assay: NCI tumour cell line growth inhibition, 48 h
The source made the active and inactive calls. Rule as the data show it: active = GI50 up to about 1.1 µM and inactive = higher.
Outcomes you can answer with include only these: YES for active, NO for inactive

Example entries begin here.
| compound | class assignment |
| --- | --- |
| CCCCCCCCC1=CCC(CN(C)C)C1=O (configuration not stated) | NO |
| Nn1c(S)nnc1N/N=C1/C(=O)Nc2c(Cl)cc(Cl)cc21 | NO |
| Cc1n(CC(C)C)c2c([n+]1C)C(=O)c1ccccc1C2=O | YES |
| COc1ccc2c([nH]c3cc(O)c(C)cc32)c1C=O | NO |
| CCN(CCCl)CCNc1c2ccccc2nc2ccc(OC)cc12 | YES |

Exercise: Hi, do you know how COC(=O)C[C@](O)(CCCC(C)(C)O)C(=O)O[C@@H]1C(OC)=C[C@]23CCCN2CCc2cc4c(cc2[C@H]13)OCO4 [OMACETAXINE MEPESUCCINATE] came out in this test?
Key: YES

Exercise: Hi, do you know how CCOc1ccc(OP2(=O)NC(=O)C=C(C)N2)cc1 (configuration not stated) came out in this test?
Key: NO

----------
Tested on: OVCAR-8
Assay: NCI tumour cell line growth inhibition, 48 h
Active and inactive are the calls of the source. Cut-off read from the data, not from the text of the source: active = GI50 up to about 1.1 µM and inactive = higher.
Outcomes you can answer with include only these: active, inactive

| compound | class assignment |
| --- | --- |
| CN(C)S(=O)(=O)c1nc(Cl)c2nc[nH]c2n1 | inactive |
| O=C(CSc1nc2ccc(I)cc2c(=O)n1Cc1ccccc1)Nc1ccc(Br)cc1 | inactive |
| Cc1ccc(S(=O)(=O)N2CCNCCN(S(=O)(=O)c3ccc(C)cc3)CCN(S(=O)(=O)c3ccc(C)cc3)CC2)cc1 | inactive |
| CCCCOCCOCCOC1=C(Cl)C(=O)c2c(O)ccc(O)c2C1=O | inactive |
| COc1cc(N(CCC#N)CCC#N)ccc1C(=N/NC(=O)c1cc(Br)ccc1O)/N=N/c1ccccc1 | inactive |
| CC1=NN(C(=O)c2ccccc2O)C(=O)/C1=C/c1ccco1 | inactive |

Now for another entry.
Exercise: Hi, do you know how O=C(O)C(Cc1c[nH]c2ccccc12)N1C(=O)c2ccccc2C1=O (stereo unspecified) came out in this test?
Key: inactive

----------
Test system: NCI-H226
Assay: NCI tumour cell line growth inhibition, 48 h
Activity calls are given as the source filed them. No stated cut-off is given here; in the data, active = GI50 up to about 1.1 µM and inactive = higher.
attribute measured: GI50

Below, each entry is followed by its recorded GI50 result.
| compound | GI50 |
| --- | --- |
| CC1=COC2=C(C)C(=O)C(=O)c3c(C)ccc1c32 [MANSONONE F] | 14.4 µM (inactive) |
| Cc1ccc(S(=O)(=O)NC(=O)Nc2ccc(C(=O)O)c(O)c2)cc1 | > 100 µM (inactive) |
| COC(=O)Nc1nc2cc(NC(=O)c3cccs3)ccc2[nH]1 | > 100 µM (inactive) |
| CCOc1nc(OCC)nc(-c2cccn2-c2ccccc2)n1 | 32.7 µM (inactive) |
| C[n+]1c2ccccc2c(C(=O)Nc2ccc(S(=O)(=O)Nc3ccnn3-c3ccccc3)cc2)c2ccccc21 | > 100 µM (inactive) |

// GI50 lookup, compound = O=C(CN1CCOCC1)CC(O)(C(F)(F)F)C(F)(F)F , result: > 100 µM (inactive)

// GI50 lookup, compound = Cc1coc2c1[C@@H](O)[C@@]1(C)[C@H](CCC[C@@H]1C)C2 , result: 25.5 µM (inactive)
